# Assay overview: qHTS for Inhibitors of human tyrosyl-DNA phosphodiesterase 1 (TDP1): qHTS in cells in absence of CPT; also: nearly all actives have a fitted effect of over 55% in size
# Cond: DT40 Tdp1-/- hTDP1 cells, no CPT, ATP luminescence, 48 h
In all, about 420,000 compounds went through this assay and about 64,000 (15%) were called active. Inconclusive results (about 27%) are left out. Calls follow the shape of the dose curve; as a rule, active = well fitted inhibition curve with a large enough effect; inconclusive = small, poorly fitted or top-dose-only effect; inactive = flat fitted curve, though single readings scatter. A selection follows.
Your reply should match one of these outcome classes. active, inactive

Use these answered entries as a reference point.
>>> class_label("CC1(C)C2CC[C@]3(C)C(CC=C4[C@@H]5C[C@@](C)(CO)CC[C@]5(C(=O)O)CC[C@]43C)[C@@]2(C)CC[C@@H]1O (stereo partly specified)")
"inactive"
>>> class_label("CC(C)Oc1ccc(CCc2nnc(SCC(=O)O)n2-c2ccccc2)cc1")
"inactive"
>>> class_label("Cc1cc(C)c2c(-n3cccc3)c(C(=O)NNS(=O)(=O)c3ccc(F)cc3)sc2n1")
"inactive"
>>> class_label("COC(=O)/C=C\\C(=O)Nc1cccc([N+](=O)[O-])c1")
"active"
>>> class_label("CN(CC#CCC(c1ccccc1)c1ccccc1)C(C)(C)C")
"active"
>>> class_label("O=C(CSCC(=O)Nc1cccc([N+](=O)[O-])c1)Nc1ccccc1")
"inactive"
>>> class_label("CC(=O)Nc1cccc([N+](=O)[O-])c1")
"inactive"
>>> class_label("CC(C)Oc1ccc(Cc2n[nH]c(=S)n2Cc2ccccc2)cc1Cl")
"inactive"

Request: For this molecule, state the assay outcome: CC(C)Oc1ccc(CCc2n[nH]c(=S)n2Cc2ccccc2)cc1
Result: active

Request: // return assay outcome for O=S(=O)(NC1CCCC1)c1ccc(-n2cnnn2)cc1
Result: inactive

Request: For Cc1cc(Nc2ccccc2)n(CCC#N)n1 , what call appears in the results of this test?
Result: inactive

---

# Assay overview: qHTS for Inhibitors of human tyrosyl-DNA phosphodiesterase 1 (TDP1): qHTS in cells in absence of CPT; also: nearly all actives have a fitted effect of over 55% in size
# Cond: DT40 Tdp1-/- hTDP1 cells, no CPT, ATP luminescence, 48 h
Hit rate of the full screen: of about 420,000 compounds, about 64,000 (15%) were called active. Inconclusive results (about 27%) are left out. The call rests on the fitted dose curve; in most records, active means well fitted inhibition curve with a large enough effect; inconclusive means small, poorly fitted or top-dose-only effect; inactive means flat fitted curve, though single readings scatter. A selection follows.
Choose one outcome from this list and give only that: active, inactive

>>> class_label("CC1(C)CC(=O)C=C(NCCN2CCNCC2)C1")
"inactive"
>>> class_label("CCOC(=O)N1CCC(NC(=O)COc2cc(=O)n(C)c3ccccc23)CC1")
"inactive"
>>> class_label("COc1ccc(CNC(=O)[C@H](Cc2c[nH]c3ccccc23)NC(C)=O)cc1OC")
"inactive"
>>> class_label("Cn1c(=O)c(C(=O)O)nn(-c2ccccc2)c1=O")
"active"
>>> class_label("O=C(CSC1CC(=O)N(CCc2ccccc2)C1=O)Nc1ccc(Cl)cc1 (stereo not given)")
"inactive"
>>> class_label("O=C1c2ccccc2NC(c2ccccc2O)N1NS(=O)(=O)c1ccccc1 (stereo not given)")
"inactive"
>>> class_label("COc1ccc(-n2c(SCC(=O)Nc3ccc(Cl)c(C)c3)nc3n[nH]c(C)c3c2=N)cc1")
"active"
>>> class_label("CCC(C(=O)OC)n1cnc2c(oc3ccccc32)c1=O (stereo not given)")
"inactive"
>>> class_label("O=C(COC(=O)c1ccccc1)Nc1cccc(S(=O)(=O)N2CCOCC2)c1")
"inactive"
>>> class_label("CCOC(=O)NN1C(=O)c2ccccc2NC1c1ccccc1O (stereo not given)")
"active"

Request: I would be grateful if you could indicate the recorded call for COc1ccc(Cc2nnc(SCC(=O)Nc3ccc(C)c(Cl)c3)[nH]c2=O)cc1 .
Result: inactive

Request: Test call, this compound: Cn1c(-c2ccc(C(F)(F)F)cc2)cc2onc(-c3ccccc3)c2c1=O
Result: inactive

Request: Record lookup: outcome of this test for CN(C)c1nc(=Nc2cccc(Cl)c2)ss1 ?
Result: active

Request: Returns: the outcome recorded for COc1ccc(-n2c(Cc3cccn3C)nnc2SCC(=O)Nc2cc(C)cc(C)c2)cc1 in this assay.
Result: inactive

Request: Dear colleague, could you share the recorded outcome for CNC(=O)c1sc(NCc2ccccc2OC)nc1C when you have a moment?
Result: inactive

Request: Recorded call for Cc1nn(-c2ccc(F)cc2)c(Cl)c1/C=C(/CCC(=O)O)c1nc2ccccc2s1 ?
Result: inactive

Request: Please let me know the test result on file for CC1=C(C(=O)N2CCOCC2)CC(CC(=O)NCCCN(C)C)C(=O)N1Cc1ccc(C(C)(C)C)cc1 (stereo not given) .
Result: inactive

Request: Returns: the outcome recorded for CC(C)(C)NC(=O)CSC(=Nc1ccccc1F)NC#N in this assay.
Result: active

Request: Record lookup: outcome of this test for CCOC(=O)/C=C/C(=O)OCC(=O)NC(c1ccccc1)c1ccccc1 ?
Result: active

Request: Short answer needed: outcome of this test for COCC(=O)N1CCc2ccc(NC(=O)c3ccccc3Cl)cc2C1 ?
Result: inactive

Request: # fetch the recorded call for Cc1cccc(NC(=O)Nc2ccc(OCc3ccccc3)cc2)n1 here
Result: inactive

Request: Please let me know the test result on file for Cc1ccccc1CSCC(=O)NC(=O)NC(C)(C)C .
Result: inactive

Request: Which result was noted for this compound in the test: COc1ccc(C(C(=O)NC2CCCCC2)N(C(=O)Cc2c[nH]c3ccccc23)c2ccccc2)cc1OC (stereo not given)
Result: active

Request: Entry COc1ccc(CNC(=O)C2CCN(C(=O)c3ccco3)CC2)cc1 : call = ?
Result: inactive

Request: // return assay outcome for O=C(COc1ccc(Cl)cc1)NCCC1=CCCCC1
Result: inactive

Request: What is the recorded call for this compound in the test? COc1ccccc1Nc1ncnc2c1oc1ccccc12
Result: active

Request: For CC(=O)Nc1ccc(N2C(=O)C3C4C=CC(CC4)C3C2=O)cc1 (stereo not given) , what call appears in the results of this test?
Result: inactive

Request: For O=C(OCCN1C(=O)c2ccccc2C1=O)Oc1ccccc1 , what call appears in the results of this test?
Result: inactive

Request: Which outcome did this test record for the compound COC(=O)c1ccccc1NC(=O)Cn1c(=O)n(-c2cccc(C(F)(F)F)c2)c(=O)c2c(C)c(C)sc21 ?
Result: inactive

Request: Give the logged outcome of this assay for the following compound: CC(C)c1c(C(=O)N/N=C/c2ccc(-c3ccccc3)cc2)nnn1-c1nonc1N
Result: inactive

Request: Tell me the recorded outcome of this test for CC1(C(=O)NS(=O)(=O)c2cccc(OC(F)F)c2)CCN1C(=O)COc1ccc(Cl)cc1 (stereo not given) .
Result: inactive

Request: Can you look up the reported call for O=C(CSc1ncnc2c1oc1ccccc12)NC1CCCC1 for me?
Result: inactive

Request: Would you mind telling me which call this test gave CC1(C(=O)NS(=O)(=O)c2ccc(C#N)cc2)CCN1C(=O)CC1CCCC1 (stereo not given) ?
Result: inactive

Request: Please state the recorded outcome for this compound: Cc1nc([N+](=O)[O-])c(NCCCO)n1Cc1ccccc1
Result: inactive

Request: Could you check what this test reported for Cc1cc(C)cc(OCC(=O)NC(C)c2ccccc2)c1 (stereo not given) ?
Result: inactive

---

# Assay overview: qHTS for Inhibitors of human tyrosyl-DNA phosphodiesterase 1 (TDP1): qHTS in cells in absence of CPT; also: nearly all actives have a fitted effect of over 55% in size
# Cond: DT40 Tdp1-/- hTDP1 cells, no CPT, ATP luminescence, 48 h
Screen size: about 420,000 compounds; about 64,000 (15%) were called active. Roughly 27% stayed inconclusive and do not appear here. Calls come from the whole dose curve; as a rule, active = well fitted inhibition curve with a large enough effect; inconclusive = small, poorly fitted or top-dose-only effect; inactive = flat fitted curve, though single readings scatter. The list is a sample of the results.
Field 'call' accepts active, inactive

Previously resolved entries follow.
>>> class_label("Cc1ccccc1OCc1nc2c3cnn(-c4ccccc4F)c3ncn2n1")
"inactive"
>>> class_label("COc1ccc(CNC(=O)Cn2nnc(-c3ccccc3F)n2)cc1")
"inactive"

Request: Which result was noted for this compound in the test: COc1cccc(CCNC(=O)COc2cccc3c2OC(C)(C)C3)c1
Result: inactive

Request: Per the assay record, what outcome was assigned to COc1ccc(CCNC(=O)C(=O)NCC2CCNCC2)cc1OC ?
Result: inactive

Request: Which outcome was assigned to COc1cccc(NC(=O)c2cc(S(=O)(=O)N3CCc4ccccc43)cn2C)c1 in this test?
Result: inactive

Request: Please share the test call associated with COc1ccc2c(c1)c1nc3n(c(=O)c1n2CC(=O)Nc1ccccc1)CCS3 .
Result: inactive

Request: Per the assay record, what outcome was assigned to CC1=NOC(=O)/C1=C\c1ccccc1 ?
Result: inactive

Request: Per the records of this test, what outcome belongs to Cc1cccc(C)c1NC(=O)CCS(=O)(=O)c1cccc2nsnc12 ?
Result: inactive

Request: Identify the outcome logged in this assay for the compound shown: CN1C[C@@H](CO)O[C@@H](n2cnc3c(N4CCN(CCO)CC4)ncnc32)C1
Result: inactive

Request: Hi, do you know how COc1cc2ccccc2cc1C(=O)Nc1nc(C)c(C(C)=O)s1 came out in this test?
Result: inactive

Request: # lookup: test call for CC1=NC2(CCCc3c2no[n+]3[O-])N(O)C1(C)C (configuration not stated)
Result: inactive

Request: For CC(=O)c1c(C)[nH]c(C(=O)CN2C(=O)NC(C)(C)C2=O)c1C , what call appears in the results of this test?
Result: inactive
